B1: library; numbered along this chain (parent)
chain: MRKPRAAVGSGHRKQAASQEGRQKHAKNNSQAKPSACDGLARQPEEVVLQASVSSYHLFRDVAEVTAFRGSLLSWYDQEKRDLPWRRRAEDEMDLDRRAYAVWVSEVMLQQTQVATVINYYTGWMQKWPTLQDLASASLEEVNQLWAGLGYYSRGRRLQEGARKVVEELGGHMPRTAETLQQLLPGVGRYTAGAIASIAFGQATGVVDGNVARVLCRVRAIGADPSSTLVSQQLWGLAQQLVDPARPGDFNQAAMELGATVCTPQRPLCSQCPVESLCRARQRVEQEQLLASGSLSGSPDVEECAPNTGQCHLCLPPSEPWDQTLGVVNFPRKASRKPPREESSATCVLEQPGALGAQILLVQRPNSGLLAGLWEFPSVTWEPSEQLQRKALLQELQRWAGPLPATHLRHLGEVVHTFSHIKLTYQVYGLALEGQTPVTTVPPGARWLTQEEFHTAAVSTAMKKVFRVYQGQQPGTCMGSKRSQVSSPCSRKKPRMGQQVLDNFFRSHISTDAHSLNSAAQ

- Variants of: B1
- TEST: 8OG:A repair function score (normalized; synonymous = 0, nonsense = -1) (normalized log-likelihood score); higher = more repair activity (WT-like);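 also: cells sorted at 72 h after reporter transfection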
- REPORTED CONDITIONS: with 8OG:A DNA repair reporter (GFP) in HEK-293 MUTYH KO cells
REPORTED PROPERTY: 8OG:A repair function score
Give a plain numeric answer without units written out.

For orientation, consider the following solved cases.
MUTATION CODE: L295F
NUMERIC VALUE: -0.0139

MUTATION CODE: T179C
NUMERIC VALUE: -0.0042

MUTATION CODE: G326D
NUMERIC VALUE: -0.344

MUTATION CODE: R495Q
NUMERIC VALUE: -0.0181

Quick note, 8OG:A repair function score for `Q450L` landed at -0.12

Quick note, 8OG:A repair function score for `E382I` landed at -0.0196

Quick note, 8OG:A repair function score for `A63K` landed at -0.00172

Quick note, 8OG:A repair function score for `K493H` landed at 0.0281

Quick note, 8OG:A repair function score for `K3P` landed at 0.0268

Quick note, 8OG:A repair function score for `T263Q` landed at -0.129

Quick note, 8OG:A repair function score for `T455W` landed at -0.419

Quick note, 8OG:A repair function score for `A519N` landed at -0.00616

Quick note, 8OG:A repair function score for `M255W` landed at -1.04

The reported measurements were obtained from the supplement of paper PMC11908140.
